Origin of the recorded values: ChEMBL document CHEMBL4513216

Known cytotoxicity at 10 µM of a selection of compounds
# ASSAY_METHOD_TEXT: Toxicity liver stage against HepG2, at 10uM
# Format: cell-based
# Design: test concentration 10 uM, cell line HepG2-A16-CD81EGFP
# EXPERIMENTAL_PARAMETERS: human, HepG2-A16-CD81EGFP cells; read-out: INHIBITION
Entry format: amount then unit.

[[record]]
compound = "CCn1cc(C(=O)NCC(C)(CC)N2CCOCC2)c2ccccc21 (configuration not stated)"
experimental_readout = "cytotoxicity at 10 µM"
reported_measurement = "6.13%"


get_value(item= CCn1c(C)nnc1CN(C)C1CCN(Cc2c(C)noc2C)C1 (configuration not stated) , readout=cytotoxicity at 10 µM) returns 0.317%

get_value(item= NC(=O)C1CCN(Cc2cc3c(cc2Br)OCCO3)C1 (configuration not stated) , readout=cytotoxicity at 10 µM) returns 0.641%

get_value(item= O=C(NCc1ccccc1)c1nc2c(o1)CN(C(=O)c1cccnc1)C2 , readout=cytotoxicity at 10 µM) returns -76.9%

get_value(item= COc1ccccc1CC(C)CC(=O)NC(C)C (configuration not stated) , readout=cytotoxicity at 10 µM) returns 6.16%

get_value(item= CN(C)CC(Nc1nc(N)nc2c1CCNCC2)c1ccccc1 (configuration not stated) , readout=cytotoxicity at 10 µM) returns -2.92%

get_value(item= CC(C)N1CCCC(N2CCOC3(CCCC3)C2)C1=O (configuration not stated) , readout=cytotoxicity at 10 µM) returns -7.33%

get_value(item= Cc1cc(N2CCCC(c3[nH]ncc3Cc3ccccc3)C2)nc(N)n1 (configuration not stated) , readout=cytotoxicity at 10 µM) returns 57.1%

get_value(item= CCC(C(=O)NC1CCCC1)n1ccc2ncccc2c1=O (configuration not stated) , readout=cytotoxicity at 10 µM) returns 4.2%

get_value(item= COCC1CC2(CCN(C(=O)c3occc3C)CC2)CO1 (configuration not stated) , readout=cytotoxicity at 10 µM) returns 0.982%

get_value(item= CSCCC(NC(=O)c1ccccc1)C(=O)N(C)Cc1ccsc1 (configuration not stated) , readout=cytotoxicity at 10 µM) returns 7.17%

get_value(item= OCCN(Cc1cccnc1)c1ccc(Cl)cn1 , readout=cytotoxicity at 10 µM) returns 31.9%

###

# ASSAY_METHOD_TEXT: Toxicity liver stage against HepG2, at 10uM
# Format: cell-based
# Design: test concentration 10 uM, cell line HepG2-A16-CD81EGFP
# EXPERIMENTAL_PARAMETERS: human, HepG2-A16-CD81EGFP cells; read-out: INHIBITION
EXPERIMENTAL_READOUT: cytotoxicity at 10 µM
Entry format: amount then unit.

Examples from the recorded data:
[[record]]
molecule = "Cc1cnc(CNC(=O)N(CCCO)C2CCc3ccccc32)s1 (configuration not stated)"
reported_measurement = "-17.2%"

[[record]]
molecule = "Cc1ncn(CCNC(=O)Nc2ccc(F)c(Cl)c2)c(=O)c1C"
reported_measurement = "-2.93%"

[[record]]
molecule = "Cn1c(CCNc2nccnc2C#N)nc2ccc(F)cc21"
reported_measurement = "-6.92%"

[[record]]
molecule = "CN(CC1Cc2ccccc2CN1C)c1nc(N)nc2c1CCNCC2 (configuration not stated)"
reported_measurement = "0.0642%"

[[record]]
molecule = "c1coc(-c2nc(CN3CCOC(Cn4cccn4)C3)cs2)c1 (configuration not stated)"
reported_measurement = "-6.45%"

[[record]]
molecule = "CCS(=O)(=O)N1CCN(CCOC)c2ncccc2C1"
reported_measurement = "4.37%"

[[record]]
molecule = "CCCC1C=CCN1C(=O)c1cc(COc2ccc3c(c2)OCO3)[nH]n1 (configuration not stated)"
reported_measurement = "1.99%"

[[record]]
molecule = "O=C1CSC(c2ccsc2)c2c(n(C3CCCC3)[nH]c2=O)N1 (configuration not stated)"
reported_measurement = "-11.6%"

[[record]]
molecule = "CCOc1nnc(CNC2CCCN(c3ccc(C)nn3)C2)s1 (configuration not stated)"
reported_measurement = "-9.31%"

[[record]]
molecule = "Cc1nc(N2CCN(C(=O)c3ccccc3)CC2)cc(-n2ccnc2)n1"
reported_measurement = "0.0237%"


get_value(item= CN1CCN(C(=O)Cc2ccccn2)Cc2cccnc21 , readout=cytotoxicity at 10 µM) returns -7.01%

get_value(item= COc1c(F)cc(CN2CCCC3(CC2)CNC(=O)O3)cc1Cl (configuration not stated) , readout=cytotoxicity at 10 µM) returns 0.465%

###

# ASSAY_METHOD_TEXT: Toxicity liver stage against HepG2, at 10uM
# Type: cell-based
# Design: test concentration 10 uM, cell line HepG2-A16-CD81EGFP
# EXPERIMENTAL_PARAMETERS: human, HepG2-A16-CD81EGFP cells; read-out: INHIBITION
Known cytotoxicity at 10 µM of a selection of compounds
The reply should contain only the number, in %.

Examples from the recorded data:
[[record]]
compound = "Cc1cnn(CC2CCCCN2C(=O)c2ccc3c(c2)nnn3C)c1 (centres undefined)"
units_of_measure = "%"
reported_measurement = -6.36

[[record]]
compound = "Cc1cccc(CN2CCc3nnc(CN4CCCC4=O)n3CC2)n1"
units_of_measure = "%"
reported_measurement = 5.31

[[record]]
compound = "O=C1CCC2(CCC(NC3CCOC3)CC2)N1Cc1ccncc1 (centres undefined)"
units_of_measure = "%"
reported_measurement = 3.61

[[record]]
compound = "Cc1nc(C)n(CC2CCCN2CCOc2ccccc2F)n1 (centres undefined)"
units_of_measure = "%"
reported_measurement = -3.21

[[record]]
compound = "CC(C)Cn1c(=O)n(CCn2cc(Cl)cn2)c2cc(C(=O)O)cnc21"
units_of_measure = "%"
reported_measurement = 3.72


get_value(item= O=C([C@H]1C[C@H]2OCC[C@H]2N(Cc2cccnc2)C1)N1CCCCO1 , readout=cytotoxicity at 10 µM) returns -69.8

###

# ASSAY_METHOD_TEXT: Toxicity liver stage against HepG2, at 10uM
# Format: cell-based
# Parameters: test concentration 10 uM, cell line HepG2-A16-CD81EGFP
# EXPERIMENTAL_PARAMETERS: human, HepG2-A16-CD81EGFP cells; read-out: INHIBITION
EXPERIMENTAL_READOUT: cytotoxicity at 10 µM (%)
The reply should contain only the number, in %.

Examples from the recorded data:
[[record]]
molecule = "CNC(=O)[C@@H](c1ccccc1OC)N1CCC[C@H]1C(=O)NCCN(C)C"
experimental_readout = "cytotoxicity at 10 µM"
reported_measurement = -5.12

[[record]]
molecule = "CC1CN(c2ncccc2C(=O)N[C@@H]2CCCc3ccccc32)CCN1 (stereo partly drawn)"
experimental_readout = "cytotoxicity at 10 µM"
reported_measurement = 10.7

[[record]]
molecule = "COc1cccc(-c2noc(C3CCN(Cc4ccccc4F)C3)n2)c1 (stereo not drawn)"
experimental_readout = "cytotoxicity at 10 µM"
reported_measurement = -2.06

[[record]]
molecule = "c1ccc(CN2CCC(Nc3ncnc4c3CCNCC4)C2)cc1 (stereo not drawn)"
experimental_readout = "cytotoxicity at 10 µM"
reported_measurement = 8.03

[[record]]
molecule = "Cc1cnn(CC2CCCCN2C(=O)c2ccc(NC3CC3)nc2)c1 (stereo not drawn)"
experimental_readout = "cytotoxicity at 10 µM"
reported_measurement = -11.9

[[record]]
molecule = "Cc1cc2nc(SCC(=O)NC(C)C)n(Cc3ccco3)c(O)c-2n1"
experimental_readout = "cytotoxicity at 10 µM"
reported_measurement = 10.5

[[record]]
molecule = "COc1ccccc1OCC(=O)N1CCN(Cc2noc(C)n2)CC1"
experimental_readout = "cytotoxicity at 10 µM"
reported_measurement = 3.82

[[record]]
molecule = "Cc1ccc(S(=O)(=O)N2CCOCC2C#N)cc1Br (stereo not drawn)"
experimental_readout = "cytotoxicity at 10 µM"
reported_measurement = 6.08

[[record]]
molecule = "CCN(C(=O)c1c(Cl)cnn1CC)C(C)C(N)=O (stereo not drawn)"
experimental_readout = "cytotoxicity at 10 µM"
reported_measurement = -16.1

[[record]]
molecule = "Cn1cc(N2CCC3(CCCN(Cc4ccc(F)cc4)C3)C2=O)cn1 (stereo not drawn)"
experimental_readout = "cytotoxicity at 10 µM"
reported_measurement = -73.4


get_value(item= Cc1c(NC(=O)NC(C)CCO)cccc1OC1CCCC1 (stereo not drawn) , readout=cytotoxicity at 10 µM) returns -7.18

get_value(item= Cn1cc(N2C(=O)CC[C@@H]3[C@H]2CCN3Cc2cccc(C#N)c2)cn1 , readout=cytotoxicity at 10 µM) returns 8.51

get_value(item= CC1(Cc2ccc3c(c2)OCO3)CCCN(S(=O)(=O)N2CCCC2)C1 (stereo not drawn) , readout=cytotoxicity at 10 µM) returns -0.788

###

Known cytotoxicity at 10 µM of a selection of compounds
# ASSAY_METHOD_TEXT: Toxicity liver stage against HepG2, at 10uM
# Type: cell-based
# Parameters: test concentration 10 uM, cell line HepG2-A16-CD81EGFP
# EXPERIMENTAL_PARAMETERS: human, HepG2-A16-CD81EGFP cells; read-out: INHIBITION
The reply should contain only the number, in %.

Examples from the recorded data:
[[record]]
compound = "O=C1CSC(c2ccccc2)c2c(n(C3CCOCC3)[nH]c2=O)N1 (stereo unspecified)"
reported_measurement = -4.69

[[record]]
compound = "CCOc1ccccc1-c1noc(CN2CCOC(CN(C)C)C2)n1 (stereo unspecified)"
reported_measurement = -5


Now, please, on to the next compound.
get_value(item= Cc1ccc(C(=O)N2C[C@H](OCC3CCOCC3)[C@H]3OCCC[C@H]32)o1 , readout=cytotoxicity at 10 µM) returns -0.714
